# credit: patent US20220387487A1

# Test system: FMC63
# Sequence (as listed by the source): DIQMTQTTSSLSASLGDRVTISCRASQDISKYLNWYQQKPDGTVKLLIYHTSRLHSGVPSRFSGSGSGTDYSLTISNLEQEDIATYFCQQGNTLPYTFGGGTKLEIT
# Sequence (as listed by the source): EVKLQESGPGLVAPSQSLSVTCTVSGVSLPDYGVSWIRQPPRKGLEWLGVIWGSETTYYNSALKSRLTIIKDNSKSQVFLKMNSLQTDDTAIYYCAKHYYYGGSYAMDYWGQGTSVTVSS
# procedure.text: CD19 variant binding to anti-CD19 antibody FMC63 (score)
# reported.conditions: Table 1A, CD19 single mutants (positions of SEQ ID NO:2)
property: FMC63 Binding Score

### Prompt Determine its reported FMC63 Binding Score: K212A: CD19 variant (protein) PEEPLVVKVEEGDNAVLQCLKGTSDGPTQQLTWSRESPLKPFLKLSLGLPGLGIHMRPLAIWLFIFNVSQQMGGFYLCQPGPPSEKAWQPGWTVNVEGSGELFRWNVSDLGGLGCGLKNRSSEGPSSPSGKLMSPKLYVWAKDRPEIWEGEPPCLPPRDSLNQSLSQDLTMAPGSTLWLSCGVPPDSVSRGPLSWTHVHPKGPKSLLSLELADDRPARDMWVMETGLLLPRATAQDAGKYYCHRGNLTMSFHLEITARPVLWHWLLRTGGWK
### Response 6.1 ± .6
